This collection of values is drawn from PubChem BioAssay AID1963960.

System: MDA-MB-468 spheroids with HUVEC/MSC, viability
Protocol Text: Anticancer human tumor MDA-MB-468 cell line growth inhibition [PI3K];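 note: spheroids exposed to agents for seven days before readout; 100% = DMSO vehicle control viability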
Experimental Parameters: second compound 0.00316 µM; first compound 0.316 µM; stronger effect = lower value
Property Measured: viability, T/C (%)
Numbers only; they are read as %.

viability, T/C in this record for C=CC(=O)N1CCN(c2nc(=O)n(-c3c(C)ccnc3C(C)C)c3nc(-c4c(O)cccc4F)c(F)cc23)C(C)C1 (stereo not drawn) + COc1c(OCCCN2CCOCC2)ccc2c3n(c(=NC(=O)c4cnc(N)nc4)nc12)CCN3 : 97.5

// recorded viability, T/C for CC1(C)CCC(Nc2ncc(C(F)(F)F)c(-c3c[nH]c4c(P(C)(C)=O)c(C#N)ccc34)n2)CN1 (stereo not drawn) + CC(Nc1ccc2c(c1)OCCn1cc(N3C(=O)OCC3C(F)F)nc1-2)C(N)=O : 9.65

Kindly review the next compound as well.
For reference, reported viability, T/C for CCN1CCN(Cc2ccc(Nc3ncc(F)c(-c4cc(F)c5nc(C)n(C(C)C)c5c4)n3)nc2)CC1 + CC(Nc1ccc2c(c1)OCCn1cc(N3C(=O)OCC3C(F)F)nc1-2)C(N)=O stands at 98.9
